Experiment: Phase I first-in-human study, pharmacokinetics after single ascending subcutaneous doses in healthy volunteers
Format: in vivo
Conditions: human, plasma; single SC dose 8 mg; mean
Bridge positions count the residues as written; N and C are the ends. Square brackets hold non-standard residues; d marks the D form. Peptide text beside a SMILES is read from it. * marks the point of attachment. Phe(2-CONH2) = NC(=O)c1ccccc1C[C@H](N)C(=O)O; Orn(iPr) = CC(C)NCCC[C@H](N)C(=O)O; Oxazole2carbonyl = O=C(c1ncco1)*; 3Pal = N[C@@H](Cc1cccnc1)C(=O)O
measuredAttribute: Tmax (min)
Give the number; min is assumed, so skip it.

Tmax reading for CC(C)NCCC[C@@H]1NC(=O)[C@@H](NC(=O)[C@H](Cc2ccccc2C(N)=O)NC(=O)[C@H](NC(=O)c2ncco2)C(C)C)CSSC[C@@H](C(=O)N[C@@H](Cc2cccnc2)C(N)=O)NC(=O)[C@H](Cc2ccccc2)NC(=O)[C@@H]2CCCN2C(=O)CNC(=O)[C@H](C(C)C)NC(=O)[C@H](CC(=O)O)NC1=O [AXN-001] (Oxazole2carbonyl-[dV][Phe(2-CONH2)]C[Orn(iPr)]DVGPFC[3Pal]-NH2; disulfide 3-10) : 45
